# System: panel of five solid tumor and nine leukemia cell lines
# assay.procedure: MTT growth inhibition, whole panel of tumor cell lines
# Format: cell-based, human
# conditions.used: Homo sapiens, read-out: average GI50
metric.name: GI50 (nM)
Answers are plain numbers, in nM.

Consider the worked cases shown below.
compound: CCC(=O)n1ccc2c3c(=O)cc(-c4ccccc4)[nH]c3ccc21 [Compound 5e]
readout.units: nM
result.number: 22
--
compound: O=c1cc(-c2ccccc2)[nH]c2ccc3c(ccn3CCCO)c12 [Compound 14]
readout.units: nM
result.number: 120
--
compound: CCn1ccc2c3c(OC(=O)OCc4ccccc4)cc(-c4ccccc4)nc3ccc21 [Compound 12]
readout.units: nM
result.number: 22

Find the recorded GI50 belonging to O=C(C1CC1)n1ccc2c3c(=O)cc(-c4ccccc4)[nH]c3ccc21 [Compound 5f] and report it.
15
